Test system: UACC-257 melanoma
Protocol summary: NCI tumour cell line growth inhibition, 48 h
// TGI lookup, one value per entry
Reported property: TGI

# Compound, Tgt, Reported property, Reported result
rows = [
    ("COc1ccc(S(=O)(=O)N(C(C)=O)c2ccccc2/C=C/c2cc[n+]([O-])cc2)cc1", "UACC-257 melanoma", "TGI", "> 10 µM"),
    ("O=C(/C=C/C12c3ccccc3C(c3ccccc31)C1C(=O)NC(=O)C12)c1ccccc1 (stereo not drawn)", "UACC-257 melanoma", "TGI", "3.48 µM"),
    ("CC1(C)OCC(C2OC(C)(C)OC2[C@H]2O[C@@]3(O)[C@H]4[C@H](C=CC[C@@H]42)[C@@H](OCc2ccccc2)[C@H](OCc2ccccc2)[C@H]3OCc2ccccc2)O1 (stereo partly drawn)", "UACC-257 melanoma", "TGI", "> 100 µM"),
]
